Tested on: yeast HSP78 (YDR258C) sequence
methodSummary: Duplex melting temperatures of HSP78 25-mer capture probes (UV spectrophotometer)
conditions: 25-mer capture probe duplex with complementary target; design PM = perfectly matched, MM = single mismatch; DNA, LNA_T (T) or LNA_TC (TC) substituted
l = locked nucleic acid (LNA); [5mC] = 5-methylcytosine; d = 2'-deoxy (DNA)
resultType: Average duplex melting temp. (°C)
Entry rule: numbers only, all in °C.

Would you please look over these solved cases?
substance="12718 (DNA GTTGCCATGGAGATCAAAATCTGTC; sugars from the 5' end dllddddldddddddddddldldld, backbone not given here) [compound 12718]" val=69.2
substance="12687 (DNA ATCAAATAGGAAATCAGCTAAAGCC; DNA, backbone not given here) [compound 12687]" val=54.3
substance="12755 (DNA TTGGAAACATCGGGGTGCGCTTTTT; DNA, backbone not given here; further chemistry not fully specified) [compound 12755]" val=70.8
substance="12708 (DNA GAAACATCGGGGAGCGCTTTTTCAA; sugars from the 5' end d6 l1 d10 l5 d3, backbone not given here) [compound 12708]" val=69.9
substance="12738 (DNA ATAGCAGCAATGCCCTCGTCTTGGC; sugars from the 5' end dlddldddddlddddldddldlddd, [5mC] at 5, 20, backbone not given here) [compound 12738]" val=71.5
substance="12772 (DNA TCAATGGCCTTGCACCATATAATTG; DNA, backbone not given here) [compound 12772]" val=64
substance="12730 (DNA TGGCCTAGGGAAACGGTCAGCTTAC; sugars from the 5' end lddldlddddddddddldddldldd, [5mC] at 4, 21, backbone not given here) [compound 12730]" val=75.5
substance="12757 (DNA GACAGCCTCAGTTAATTGGCCACCA; DNA, backbone not given here; further chemistry not fully specified) [compound 12757]" val=70.2
substance="12747 (DNA CACTCTAACAGTATCGCCGTTTCTA; sugars from the 5' end ldldldddldddddddlddldllld, [5mC] at 1, 3, 5, 9, 17, 23, backbone not given here) [compound 12747]" val=75.2
substance="12695 (DNA AGACGTACAGCAACAGAAATAGCAG; DNA, backbone not given here) [compound 12695]" val=61.2

The substance identified as 12689 (DNA AAATAGCAGCAAAGGCCTCGTCTTG; DNA, backbone not given here) [compound 12689] registered its Average duplex melting temp. at 64

----------
In this section we review reported Average duplex melting temp. values for a set of substances.
Test system: yeast HSP78 (YDR258C) sequence
methodSummary: Duplex melting temperatures of HSP78 25-mer capture probes (UV spectrophotometer)
conditions: 25-mer capture probe duplex with complementary target; design PM = perfectly matched, MM = single mismatch; DNA, LNA_T (T) or LNA_TC (TC) substituted
l = locked nucleic acid (LNA); [5mC] = 5-methylcytosine; d = 2'-deoxy (DNA)
Write down the value, and be sure its unit follows.

Would you please look over these solved cases?
substance="12823 (DNA CCCAACTTTGTGTCGTTTAATAAAA; sugars from the 5' end llldddllddldlddlllddldddd, [5mC] at 1, 2, 3, backbone not given here; further chemistry not fully specified) [compound 12823]" val="74.8 °C"
substance="12797 (DNA AAAACGACAGCATAAGGCTTTCTTC; DNA at ACG, LNA at T, backbone not given here; further chemistry not fully specified) [compound 12797]" val="71.7 °C"
substance="12775 (DNA CCCAACTTTGTGTCGTTTAATAAAA; DNA, backbone not given here; further chemistry not fully specified) [compound 12775]" val="61 °C"

Reported yeast HSP78 (YDR258C) sequence Average duplex melting temp. for item 12819 (DNA CACTCTAACAGTTTCGCCGTTTCTA; sugars from the 5' end ldldldddldddldddlddldllld, [5mC] at 1, 3, 5, 9, 17, 23, backbone not given here; further chemistry not fully specified) [compound 12819] was 81.9 °C

Reported yeast HSP78 (YDR258C) sequence Average duplex melting temp. for item 12805 (DNA GACAGCCTCAGTTAATTGGCCACCA; sugars from the 5' end ddlddldlddddlddlldddlddld, [5mC] at 3, 6, 21, 24, backbone not given here; further chemistry not fully specified) [compound 12805] was 82.5 °C

Reported yeast HSP78 (YDR258C) sequence Average duplex melting temp. for item 12699 (DNA CACTCTAACAGTATCGCCGTTTCTA; DNA, backbone not given here) [compound 12699] was 61.1 °C

Reported yeast HSP78 (YDR258C) sequence Average duplex melting temp. for item 12813 (DNA TCAGTTAGCCAATCCTTCGCTTCAT; sugars from the 5' end llddlddddlddldldlldlddldd, [5mC] at 2, 10, 15, 18, 20, 23, backbone not given here; further chemistry not fully specified) [compound 12813] was 81.8 °C

Reported yeast HSP78 (YDR258C) sequence Average duplex melting temp. for item 12771 (DNA CACTCTAACAGTTTCGCCGTTTCTA; DNA, backbone not given here) [compound 12771] was 66.3 °C

Reported yeast HSP78 (YDR258C) sequence Average duplex melting temp. for item 12705 (DNA CAATGATCGTGTAACGGAAATCAAC; sugars from the 5' end dddlddlddlddddddddddldddd, backbone not given here) [compound 12705] was 65.2 °C

Reported yeast HSP78 (YDR258C) sequence Average duplex melting temp. for item 12702 (DNA ATTGACCTCAAATCTTTCTTGGATA; DNA, backbone not given here) [compound 12702] was 54.5 °C

Reported yeast HSP78 (YDR258C) sequence Average duplex melting temp. for item 12727 (DNA CCCAACTTTGTGACGTTTAATAAAA; DNA at ACG, LNA at T, backbone not given here) [compound 12727] was 66.5 °C

Reported yeast HSP78 (YDR258C) sequence Average duplex melting temp. for item 12800 (DNA ACCATCATCACCCAACCTTGTGTCG; sugars from the 5' end dlddlddldddllddddlddlddld, [5mC] at 2, 12, 13, 24, backbone not given here; further chemistry not fully specified) [compound 12800] was 74.2 °C

----------
System: yeast HSP78 (YDR258C) sequence
methodSummary: Duplex melting temperatures of HSP78 25-mer capture probes (UV spectrophotometer)
conditions: 25-mer capture probe duplex with complementary target; design PM = perfectly matched, MM = single mismatch; DNA, LNA_T (T) or LNA_TC (TC) substituted
l = locked nucleic acid (LNA); [5mC] = 5-methylcytosine; d = 2'-deoxy (DNA)
resultType: Average duplex melting temp. (°C)
Entry rule: numbers only, all in °C.

Would you please look over these solved cases?
substance="12713 (DNA AAATAGCAGCAAAGGCCTCGTCTTG; DNA at ACG, LNA at T, backbone not given here) [compound 12713]" unitdescriptor=°C val=70.4
substance="12722 (DNA TTTTTCGGCCAATCGATCTTGAATT; sugars from the 5' end ldllldddddddddddldlldddld, backbone not given here) [compound 12722]" unitdescriptor=°C val=65.9
substance="12794 (DNA TTTTTCGGCCAAACGATCTTGAATT; sugars from the 5' end ldllldddddddddddldlldddld, backbone not given here; further chemistry not fully specified) [compound 12794]" unitdescriptor=°C val=71
substance="12793 (DNA ATAAAGCTGGCAATAGGTCTCTTTT; sugars from the 5' end dldddddldddddldddldldllld, backbone not given here; further chemistry not fully specified) [compound 12793]" unitdescriptor=°C val=74.3
substance="12804 (DNA GAAACATCGGGGTGCGCTTTTTCAA; sugars from the 5' end ddddldllddddldldddddldldd, [5mC] at 5, 8, 15, 23, backbone not given here; further chemistry not fully specified) [compound 12804]" unitdescriptor=°C val=83.2
substance="12706 (DNA TGGCCTAGGGAAACGGTCAGCTTAC; DNA at ACG, LNA at T, backbone not given here) [compound 12706]" unitdescriptor=°C val=71.6

The substance identified as 12742 (DNA GTTGCCATGGAGATCAAAATCTGTC; sugars from the 5' end dlddlldlddddddlddddllddld, [5mC] at 5, 6, 15, 21, backbone not given here) [compound 12742] registered its Average duplex melting temp. at 61.6

The substance identified as 12816 (DNA TTTGGTAGCACGACAAGCTTAGTAT; sugars from the 5' end ldlddlddldlddldddldlddldd, all C 5-methyl, backbone not given here; further chemistry not fully specified) [compound 12816] registered its Average duplex melting temp. at 79

The substance identified as 12811 (DNA GCAATGGCCTCGTCTTGGCCAACGA; sugars from the 5' end d10 l1 d1 l2 d11, [5mC] at 11, 14, backbone not given here; further chemistry not fully specified) [compound 12811] registered its Average duplex melting temp. at 79.3

----------
In this section we review reported Observed ratio (log2) with merged LNA block capture probes values for a set of substances.
Test system: splice variant #1 and #2 transcripts spiked into C. elegans total RNA
methodSummary: Splice variant ratio detection with merged LNA block capture probes (Example 9)
Assay type: binding
conditions: signal ratio KU007/KU008, Cy5, normalized
l = locked nucleic acid (LNA); d = 2'-deoxy (DNA)
// no unit string in output, number only

Would you please look over these solved cases?
substance="gtccagtatcgtccatcatAGTATcgataaatatgtgaaggaaatgcctg (as printed in the source, key not given here) [gene78.mINS303_50_block]" val=3.11
substance="caacactgcccagaggttcaatcGATGTgtgataggatcagtgttcaggg (CAACACTGCCCAGAGGTTCAATCGATGTGTGATAGGATCAGTGTTCAGGG; sugars from the 5' end d23 l5 d22, backbone not given here; further chemistry not fully specified) [gene78.m01INS4_50_block]" val=−2.39

The substance identified as gaaggcgaaggagactgctAATATcgataaatatgtgaaggaaatgcctg (as printed in the source, key not given here) [gene78.mINS403_50_block] registered its Observed ratio (log2) with merged LNA block capture probes at −0.86
